experiment: Log P by HPLC on reversed phase columns (EEC directive 79/831 Annex V.A8; methods [a], [b], [c]); type: physicochemical
Endpoint: LogP

Compound: N#Cc1cncn1CC(O)(c1cc(F)cc(F)c1F)C1(Cl)CC1 (stereo not shown) [I-620]
Experimental result: 2.29^[a]
--
Compound: N#Cc1cncn1CC(O)(c1cc(F)c(F)cc1Cl)C1(F)CC1 (stereo not shown) [I-579]
Experimental result: 2.32^[a]
--
Compound: N#Cc1cncn1CC(O)(c1c(F)ccc(F)c1F)C1(Cl)CC1 (stereo not shown) [I-615]
Experimental result: 2.23^[a]
--
Compound: CC(C)(C)C(O)(C#CCC1CCCCC1)Cn1cncc1C#N (stereo not shown) [I-541]
Experimental result: 3.72^[a]
--
Compound: N#Cc1cncn1CC(O)(C#Cc1ccc(C(F)(F)F)cc1)C1(Cl)CC1 (stereo not shown) [I-350]
Experimental result: 3.09^[a]
--
Compound: N#Cc1cncn1CC(O)c1ccc(Oc2ccc(Br)cc2)cc1C(F)(F)F (stereo not shown) [I-36]
Experimental result: 3.46^[a]

Give its LogP value. Item: N#Cc1cncn1CC(O)(c1ccc(C2CC2)cc1Cl)C1CC1 (stereo not shown) [I-406]
2.92^[a]

Please answer likewise for CCCC(O)(Cn1cncc1C#N)c1ccc(Cl)cc1C(F)(F)F (stereo not shown) [I-461]
3.05^[a]

Please answer likewise for CC(C)(C)C(O)(Cn1cncc1Cl)c1cc2cc(OC(F)(F)F)ccc2o1 (stereo not shown) [I-215]
2.75^[a]

Please answer likewise for N#Cc1cncn1CC(O)(CCCC1CCCCC1)C1CC1 (stereo not shown) [I-661]
3.83^[a]

FYI, the data here is from patent US20200031778A1.
